Assay: yeast display, Sf9 membrane polyspecificity reagent, FACS + sequencing; frameworks hold sequencing errors
Reported property: polyreactivity (PSR sort gate)

Worked cases, answers included:
>>> value_observed("QVQLVESGGGLGQAGGSLRLSCAASGRIFGYYAMGGYRQAPGKARELVAGIDWSGGNTYYADSVKGRFTISRDNAKNTVYLQMNSLKPEDTAVYYCAKYKGRGDSGYDSWGQGTQVTVSS")
"low polyreactivity"
>>> value_observed("QVQLVESGGGLVQAGGSLRLSCAASGFTFVNYAIGWYRQAPGKERELVAAIRRSGSRTYYADSVKGRFTISRDNAKNTVYLQMNSLKPEDTAVYYCAAVWYRLYGYWGQGTQVTVSS")
"low polyreactivity"
>>> value_observed("QVQLVESGGGLVQAGGSLRLSCAASGSTFHRNTMGWYRQAPGKERELVAGISLRGVRTYYADSVKGRFTISRDNAKNTVYLQMNSLKPEDTAVYYCAAGGPYTRNFKLGYWGQGTQVTVSS")
"high polyreactivity"
>>> value_observed("QVQLVESGGGLVQAGGSLRLSCAASGFIFRWNAMGWYRQSPGKERELVATISNGGSTYYADSVKGRFTISRDNAKNSVYLQMNSLKPEDTAVYYCAADYWYFSISITDYDYWGQGTQVTVSS")
"high polyreactivity"
>>> value_observed("QVQLVESGGGLVQAGGSLRLSCAASGSTLALYTMGWYRQAPGKERELVAAISKNGGRTYYADSVKGRFTISRDNAKNTVYLKMNSLKPEDTAVYYCAAASGSYRGYDYWGQGTQVTVSS")
"high polyreactivity"

Lookup: Annotate the sequence QVQLVESGGGLVQAGGSLRLSCAASGITFWYYAMGWYRQEPGKERELVAAISSSGGRTTYADSVKGRFTISRDNAKNTVYLQMNSLKPEDTAVYYCNADRRRYQHRRGSSVYLYDYWGQGTQVTVSS with its measured polyreactivity (PSR sort gate).
Found: high polyreactivity

Lookup: Annotate the sequence QVQLVESGGGLVQAGGSLRLICAASGSIFRYYAMGWYRQAPGKERELVADINGSGGSTYYADSVKGRFTISRDNAKNTVYLQMNSLKPEDTAVYYCATAYGWRRKYYGYDYCGQGTQVTVSS with its measured polyreactivity (PSR sort gate).
Found: high polyreactivity

Lookup: Annotate the sequence QDQLGESGGGLVQAGGSLRLSCAASGRTFNGYAMGWYRQAPGKVREFVAAITSNGARTYYADSVKGRFTISRDNAMNSVYLQMNSLKPEDTAVFYCAKRFARRSQRYDYWGQGTQVTVSS with its measured polyreactivity (PSR sort gate).
Found: high polyreactivity
